Experiment: Whole blood stability, monkey
Type: in vitro ADME
Conditions: 37° C., read-out: Whole Blood Stability (T1/2) (converted)
value_type: half-life at 5 µM
Number first, unit second.

C=CC(=O)N1C[C@H](C)N(c2nc(OCCN(CC)CC)nc3c(F)c(-c4c(O)cccc4F)c(Cl)cc23)C[C@H]1C (atropisomer, axis not shown) | 3.9 h

Record request: half-life at 5 µM value, item C=CC(=O)N1C[C@H](C)N(c2nc(N3CC(N(C)C)C3)nc3c(F)c(-c4c(O)cccc4F)c(Cl)cc23)C[C@H]1C (atropisomer, axis not shown)
6.8 h

---

Assay: Whole blood stability, dog
Type: in vitro ADME
Details: 37° C., read-out: Whole Blood Stability (T1/2) (converted)
value_type: half-life at 5 µM (h)
The figure you give is taken to be in h; do not add the unit.

In the examples that follow, each entry is paired with its recorded half-life at 5 µM.
C=CC(=O)N1[C@H](C)CN(c2nc(N3CC(N(C)C)C3)nc3c(F)c(-c4c(O)cccc4F)c(Cl)cc23)C[C@@H]1C [Compound 68] | 1.6
C=CC(=O)N1C[C@H](C)N(c2nc(N3CC(N(C)C)C3)nc3c(F)c(-c4c(O)cccc4F)c(Cl)cc23)C[C@H]1C (atropisomer, axis not shown) [Compound 52] | 5.1
C=CC(=O)N1CCN(c2nc(OCCN(CC)CC)nc3c(F)c(-c4c(O)cccc4F)c(Cl)cc23)CC1 [A, reference compound] | 0.6
C=CC(=O)N1C[C@H](C)N(c2nc(OCCN3CC(F)(F)C3)nc3c(F)c(-c4c(O)cccc4F)c(Cl)cc23)C[C@H]1C [Compound 38] | 3

Field: next molecule
Record request: half-life at 5 µM value, item C=CC(=O)N1CCN(c2nc(OCCN3CC(F)(F)C3)nc3c(F)c(-c4c(O)cccc4F)c(Cl)cc23)CC1 [C, reference compound]
0.6

---

Experiment: Whole blood stability, dog
Assay type: in vitro ADME
Conditions: 37° C., read-out: Whole Blood Stability (T1/2) (converted)
value_type: half-life at 5 µM (h)
The figure you give is taken to be in h; do not add the unit.

C=CC(=O)N1C[C@H](C)N(c2nc(OCCN(CC)CC)nc3c(F)c(-c4c(O)cccc4F)c(Cl)cc23)C[C@H]1C (atropisomer, axis not shown) | 4.8

Record request: half-life at 5 µM value, item C=CC(=O)N1CCN(c2nc(N3CC(N(C)C)C3)nc3c(F)c(-c4c(O)cccc4F)c(Cl)cc23)C[C@H]1C (atropisomer, axis not shown)
2.3

Record request: half-life at 5 µM value, item C=CC(=O)N1CCN(c2nc(OCCN3CC(F)(F)C3)nc3c(F)c(-c4c(O)cccc4F)c(Cl)cc23)C[C@H]1C (atropisomer, axis not shown)
1.3

Record request: half-life at 5 µM value, item C=CC(=O)N1CCN(c2nc(N3CC(N(C)C)C3)nc3c(F)c(-c4c(C)ccc5cn[nH]c45)c(Cl)cc23)C[C@H]1C (atropisomer, axis not shown)
3

Record request: half-life at 5 µM value, item C=CC(=O)N1CCN(c2nc(N3CC(N(C)C)C3)nc3c(F)c(-c4c(O)cccc4F)c(Cl)cc23)CC1 [B, reference compound]
0.7

---

Test: Whole blood stability, monkey
Type: in vitro ADME
Conditions: 37° C., read-out: Whole Blood Stability (T1/2) (converted)
value_type: log10(half-life at 5 µM) (log10 of the value in min)
Each number you see is log10 of half-life at 5 µM, and the unit inside the log is min.

In the examples that follow, each entry is paired with its recorded log10(half-life at 5 µM).
C=CC(=O)N1CCN(c2nc(N3CC(N(C)C)C3)nc3c(F)c(-c4c(O)cccc4F)c(Cl)cc23)CC1 [B, reference compound] | 0.78
C=CC(=O)N1CCN(c2nc(OCCN3CC(F)(F)C3)nc3c(F)c(-c4c(O)cccc4F)c(Cl)cc23)C[C@H]1C (atropisomer, axis not shown) [Compound 63] | 1.86
C=CC(=O)N1CCN(c2nc(OCCN3CC(F)(F)C3)nc3c(F)c(-c4c(O)cccc4F)c(Cl)cc23)CC1 [C, reference compound] | 1.08
C=CC(=O)N1CCN(c2nc(OCCN(CC)CC)nc3c(F)c(-c4c(O)cccc4F)c(Cl)cc23)CC1 [A, reference compound] | 0.78
C=CC(=O)N1CCN(c2nc(N3CC(N(C)C)C3)nc3c(F)c(-c4c(O)cccc4F)c(Cl)cc23)C[C@H]1C (atropisomer, axis not shown) [Compound 60] | 1.94

Record request: log10(half-life at 5 µM) value, item C=CC(=O)N1[C@H](C)CN(c2nc(N3CC(N(C)C)C3)nc3c(F)c(-c4c(O)cccc4F)c(Cl)cc23)C[C@@H]1C [Compound 68]
1.78

Record request: log10(half-life at 5 µM) value, item C=CC(=O)N1CCN(c2nc(N3CC(N(C)C)C3)nc3c(F)c(-c4c(C)ccc5cn[nH]c45)c(Cl)cc23)C[C@H]1C (atropisomer, axis not shown) [Compound 70]
1.89

Values were extracted from patent US11021470B2.
